Where do the numbers come from? From patent US9266940.

- Tested System: T1, human GLP-1 receptor (human, UniProt P43220 24-463)
- T1 construct: whole, on cells; Used as purified plasma membranes of the stably transfected BHK cell line, not as intact cells; also called hGLP-1
- Test Summary: SPA, displacement of 125I-GLP-1(7-36)NH2 from hGLP-1R BHK membranes, high HSA (2.0%)
Numbered stars: 1 amine (or outer) side, 2 acyl side, 3 side chain; on linkers, the order of the positions; unused ones are H or OH. Square brackets hold non-standard residues; d marks the D form. Side chains are listed from the residue outwards. Ends that are not written are not given here. * marks the point of attachment. Decanoyl(10-(4-HOOC-PhO)) = O=C(O)c1ccc(OCCCCCCCCCC(=O)*)cc1; γGlu = O=C(O)[C@H](CCC(=O)[*:2])N[*:1]; C14 diacid = O=C(O)CCCCCCCCCCCCC(=O)*; AEEA = NCCOCCOCC(=O)O; Aib = CC(C)(N)C(=O)O
Documented IC50 across a set of binders
The response must be a number in nM with no trailing unit.

Illustrative cases are given below, each with its answer.
INSERT INTO results (binder, result_value) VALUES
  ('HAEGTFTSDVSSYLEEQK([γGlu-AEEA-AEEA-C14 diacid])ARK([γGlu-AEEA-AEEA-C14 diacid])FIAHLVG (also called 22)', 812),
  ('HAEGTFTSDVSSYLEEQK([AEEA-AEEA-γGlu-Decanoyl(10-(4-HOOC-PhO))])VRK([AEEA-AEEA-γGlu-Decanoyl(10-(4-HOOC-PhO))])FIAWLVRGRG (also called 28)', 29);

What value of IC50 has been recorded for this entry: H[Aib]EGTFTSDVSSYK([AEEA-AEEA-γGlu-Decanoyl(10-(4-HOOC-PhO))])EEQAARK([AEEA-AEEA-γGlu-Decanoyl(10-(4-HOOC-PhO))])FIEWLVG
446
